Parameter: Tm. Scope: all listed entries.
# EXPERIMENT NOTES: melting temperature; fluorescence melt of hairpins on a sequencing array, two-state fit, raised by 9.35 °C to match UV melts
# STATED CONDITIONS: sodium 0.088 M

>  <BIOSEQUENCE>
GCACCGCGAAAGCTGAGC ((.(.((....)).).))

>  <Tm / °C>
37.5

$$$$
>  <BIOSEQUENCE>
TTCGGGAAACCGAA (((((....)))))

>  <Tm / °C>
46.7

$$$$
>  <BIOSEQUENCE>
GTAGACGAAAGTCTTTAC ((((((....)))..)))

>  <Tm / °C>
29.3

$$$$
>  <BIOSEQUENCE>
GGCTTTGGAAACAAAGTC (.(((((....))))).)

>  <Tm / °C>
48.9

$$$$
>  <BIOSEQUENCE>
GCCTAGGGAAACTTAGGC (((((.(....).)))))

>  <Tm / °C>
47.5

$$$$
>  <BIOSEQUENCE>
GTCCCTGGAAACGGGGAC (((((.(....).)))))

>  <Tm / °C>
56.4

$$$$
>  <BIOSEQUENCE>
GATCGTAATGACGATC ((((((....))))))

>  <Tm / °C>
52.8

$$$$
>  <BIOSEQUENCE>
GCTATCGAAAGATCAGC ((((((....))).)))

>  <Tm / °C>
38.2

$$$$
>  <BIOSEQUENCE>
GTCGGGGGAAACCCTGAC (((.(((....))).)))

>  <Tm / °C>
53.4

$$$$
>  <BIOSEQUENCE>
GATCAATCCGTTGATC ((((((....))))))

>  <Tm / °C>
47

$$$$
>  <BIOSEQUENCE>
GATCATTTTAATGATC ((((((....))))))

>  <Tm / °C>
53.6

$$$$
>  <BIOSEQUENCE>
GGAGGAGAAATCCTCC ((((((....))))))

>  <Tm / °C>
54.4

$$$$
>  <BIOSEQUENCE>
GATCATGCTATGATC ((((((...))))))

>  <Tm / °C>
49.9

$$$$
>  <BIOSEQUENCE>
GTCTTCGAAAGAATTGAC ((((((....)))..)))

>  <Tm / °C>
26.2

$$$$
>  <BIOSEQUENCE>
GATTAGGGAAACCTAATC (((((((....)))))))

>  <Tm / °C>
50.3

$$$$
>  <BIOSEQUENCE>
GACGGCGGAAACGTCGTC ((((.((....)).))))

>  <Tm / °C>
61.1

$$$$
>  <BIOSEQUENCE>
GCCAGTCGAAAGACAGGC (((.(((....))).)))

>  <Tm / °C>
62.8

$$$$
>  <BIOSEQUENCE>
GCCAGGCGAAAGCATTGC ((.(.((....)).).))

>  <Tm / °C>
35.7

$$$$
>  <BIOSEQUENCE>
GATCACGAAAGTGGCATC ((((((....)))..)))

>  <Tm / °C>
30.3

$$$$
>  <BIOSEQUENCE>
GCATGGCGAAAGCAAAGC ((.(.((....)).).))

>  <Tm / °C>
31.8

$$$$
>  <BIOSEQUENCE>
GATCAAGGTCTTGATC ((((((....))))))

>  <Tm / °C>
48.6

$$$$
>  <BIOSEQUENCE>
CGGGCGGAAACGCGACCG ((((((....)))..)))

>  <Tm / °C>
57.8

$$$$
>  <BIOSEQUENCE>
GGTCTTCGAAAGAACACC (((.(((....))).)))

>  <Tm / °C>
32.6

$$$$
>  <BIOSEQUENCE>
GGTCGCGGAAACGTGACC ((((.((....)).))))

>  <Tm / °C>
63.5

$$$$
>  <BIOSEQUENCE>
GGTTAACGAAAGTTGACC (((.(((....))).)))

>  <Tm / °C>
53.2

$$$$
>  <BIOSEQUENCE>
GATCCTATTTAGGATC ((((((....))))))

>  <Tm / °C>
54.4

$$$$
>  <BIOSEQUENCE>
GATCAATGTATTGATC ((((((....))))))

>  <Tm / °C>
51

$$$$

The values you see were collected from the array DNA melting data of Ke et al. (doi:10.1101/2024.01.08.574731).
